# ASSAY TARGET: 17β-hydroxysteroid dehydrogenase type 1 (17β-HSD1) (Homo sapiens)
# Construct: from tissue; host or cells: human term placenta, cytosol
# Sequence (P14061 1-328): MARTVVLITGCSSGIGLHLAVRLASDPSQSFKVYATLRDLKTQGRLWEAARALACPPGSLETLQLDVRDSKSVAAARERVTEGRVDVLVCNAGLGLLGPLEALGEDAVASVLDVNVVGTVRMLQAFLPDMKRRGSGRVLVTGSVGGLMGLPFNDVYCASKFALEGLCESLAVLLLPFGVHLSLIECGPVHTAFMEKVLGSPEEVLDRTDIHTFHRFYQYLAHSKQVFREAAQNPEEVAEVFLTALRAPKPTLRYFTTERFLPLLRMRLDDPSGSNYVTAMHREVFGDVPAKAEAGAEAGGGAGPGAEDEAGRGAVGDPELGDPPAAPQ
# MEASUREMENT DESCRIPTION: 17β-HSD1 in vitro radiosubstrate incubation (estrone to 17β-estradiol conversion)
# Type: biochemical
# CONDITIONS: read-out: 17β-HSD1 rel. conv. ± SD
# Procedure: The ability of the synthesized compounds 8–13 to inhibit activity of steroid sulfatase (STS) and 17β-hydroxysteroid dehydrogenase type 1 (17β-HSD1) was examined. […] In the general procedure, incubations were performed as described. […] Relative conversions compared to non-inhibited controls (100%) were determined. The assays were performed in triplicate, and the mean value and the standard deviation (SD) were calculated. […]
QUANTITY MEASURED: remaining activity at 10 µM
Field note: include the unit after the figure.

{"COMPOUND": "C[C@@]12CC[C@@H]3c4ccc(O)c(P(=O)(c5ccccc5)c5ccccc5)c4CC[C@H]3[C@@H]1CCC2=O [12b]", "remaining activity at 10 µM": "100%"}

List remaining activity at 10 µM for every entry below, keeping the order given.
1. COc1ccc2c(c1P(=O)(c1ccccc1)c1ccccc1)CC[C@@H]1[C@@H]2CC[C@@]2(C)C(=O)CC[C@@H]12 [11b]
2. CCOP(=O)(OCC)c1c(O)ccc2c1CC[C@@H]1[C@@H]2CC[C@@]2(C)C(=O)CC[C@@H]12 [12a]
3. CCOP(=O)(OCC)c1c(OC)ccc2c1CC[C@@H]1[C@@H]2CC[C@@]2(C)C(=O)CC[C@@H]12 [11a]

106%
84%
100%
